Cited source: patent US9663473B2

Attribute: pEC50
ASSAY SYSTEM: recombinant human ALX receptor (Homo sapiens, UniProt P25090)
RUN DESCRIPTION: Intracellular calcium measurements (FLIPR), ALX receptor agonistic activity
MEASUREMENT CONTEXT: HEK293-hALXR-Gα16 cells, Fluo-4 calcium signal, normalized to WKYMVm 10 nM
Entry type: numeric. Quantity: pEC50, the -log10 of concentration in molar units.

Some molecules with known pEC50 results, for comparison:
MOLECULE | READOUT VALUE
CCn1nccc1NC(=O)NC(Cc1ccc(OC)cc1)c1nc2ccccc2[nH]1 (stereo not shown) | 7.21
COC(=O)N1CC2CCC1CN2C(=O)N[C@H](Cc1ccc(OC)cc1)c1nc2ccccc2[nH]1 (stereo partly shown) | 6.06
O=C(NC(Cc1ccc(C(F)(F)F)cc1F)c1nc2ccccc2[nH]1)N[C@H]1CC[C@H](O)CC1 (relative stereo) [Example 240] | 7.92

// moving on: another record for pEC50
QUERY: For the molecule COc1ccc(C[C@@H](NC(=O)NCCN2CCc3ccccc32)c2nc3ccccc3[nH]2)cc1 , give its reported pEC50.
RESULT: 6.99

----------
ASSAY SYSTEM: recombinant human ALX receptor (Homo sapiens, UniProt P25090)
RUN DESCRIPTION: Intracellular calcium measurements (FLIPR), ALX receptor agonistic activity
MEASUREMENT CONTEXT: HEK293-hALXR-Gα16 cells, Fluo-4 calcium signal, normalized to WKYMVm 10 nM
Structures can show the parent of a compound that is named as a salt.
Attribute: pEC50
Entry type: numeric. Quantity: pEC50, the -log10 of concentration in molar units.

Some compounds with known pEC50 results, for comparison:
COMPOUND | READOUT VALUE
COc1ccc(C[C@@H](NC(=O)NCCCO)c2nc3ccccc3[nH]2)cc1 | 6.71
COC(=O)c1ccc([C@H](C)NC(=O)N[C@H](Cc2ccc(OC)cc2)c2nc3ccccc3[nH]2)cc1 | 6.42
COc1ccc(C[C@@H](NC(=O)NCC2CCCO2)c2nc3ccccc3[nH]2)cc1 (some centres unmarked) [Example 57, hydrochloride] | 7.09
COc1ccc(C[C@@H](NC(=O)NCc2cc(Cl)ccc2Cl)c2nc3ccccc3[nH]2)cc1 | 6.37

QUERY: For the compound COc1ccc(C[C@@H](NC(=O)NC2CCCCCC2)c2nc3ccccc3[nH]2)cc1 , give its reported pEC50.
RESULT: 7.24

QUERY: For the compound O=C(NC(Cc1ccc(Br)cc1)c1nc2cc(Cl)ccc2[nH]1)N[C@H]1CC[C@H](O)CC1 (relative stereo) , give its reported pEC50.
RESULT: 8.85

QUERY: For the compound COc1ccc(C[C@@H](NC(=O)N2CCN(C)CC2)c2nc3ccccc3[nH]2)cc1 , give its reported pEC50.
RESULT: 6.41

QUERY: For the compound COc1ccc(C[C@@H](NC(=O)NCCc2cccnc2)c2nc3ccccc3[nH]2)cc1 , give its reported pEC50.
RESULT: 6.60

----------
ASSAY SYSTEM: recombinant human ALX receptor (Homo sapiens)
Sequence (P25090 1-351): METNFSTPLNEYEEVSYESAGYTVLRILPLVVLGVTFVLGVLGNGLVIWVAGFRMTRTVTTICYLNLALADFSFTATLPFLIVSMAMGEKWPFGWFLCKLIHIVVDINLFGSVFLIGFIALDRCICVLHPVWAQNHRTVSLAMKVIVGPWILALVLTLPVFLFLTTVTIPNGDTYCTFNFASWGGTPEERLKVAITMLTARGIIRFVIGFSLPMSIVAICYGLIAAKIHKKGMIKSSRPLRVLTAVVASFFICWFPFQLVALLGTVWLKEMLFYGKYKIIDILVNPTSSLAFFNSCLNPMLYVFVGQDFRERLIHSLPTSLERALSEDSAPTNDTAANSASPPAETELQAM
RUN DESCRIPTION: Intracellular calcium measurements (FLIPR), ALX receptor agonistic activity
MEASUREMENT CONTEXT: HEK293-hALXR-Gα16 cells, Fluo-4 calcium signal, normalized to WKYMVm 10 nM
MEASURE NAME: EC50 (µM)
# value in µM; strip the unit string

Some molecules with known EC50 results, for comparison:
MOLECULE | ASSAY SYSTEM | EC50 / µM
COc1ccc(C[C@@H](NC(=O)N[C@H]2CC[C@H](O)CC2)c2nc3c(F)cccc3[nH]2)cc1 | recombinant human ALX receptor (Homo sapiens) | 0.174
COc1ccc(C[C@@H](NC(=O)NC2CCCCC2C)c2nc3ccccc3[nH]2)cc1 (some centres unmarked) | recombinant human ALX receptor (Homo sapiens) | 0.124
COc1ccc(C[C@@H](NC(=O)N[C@H]2CC[C@H](O)CC2)c2nc3cc([N+](=O)[O-])ccc3[nH]2)cc1 | recombinant human ALX receptor (Homo sapiens) | 0.018

// moving on: another record for EC50
QUERY: For the molecule COc1ccc(C[C@@H](NC(=O)NC(CN2CCOCC2)c2ccccc2)c2nc3ccccc3[nH]2)cc1 (some centres unmarked) , give its reported EC50.
RESULT: 0.028
